System: LXRb homodimer (NR concentration 270 nM)
Assay: PBM binding z-score (relative to random genomic background probes); higher = stronger binding; sequences stand for … in GC…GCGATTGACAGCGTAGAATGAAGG
Metric name: PBM binding z-score

[[record]]
biosequence = "TCGAGTAGGTTAGTCGGTGCATTCAGCCAACATA"
endpoint_value = -1.16

[[record]]
biosequence = "CTCGAAAGGTAGTGCTCAGGTGAGTATACCAAAC"
endpoint_value = -0.503

[[record]]
biosequence = "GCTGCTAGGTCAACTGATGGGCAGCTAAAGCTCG"
endpoint_value = -0.413

[[record]]
biosequence = "ACTAGTTGGTCAGATGAGGTCACACACAATTCGG"
endpoint_value = 0.869

[[record]]
biosequence = "CAAACTAGGTCACAGAGCTCAAAGTCCGTGCGTA"
endpoint_value = 0.231

[[record]]
biosequence = "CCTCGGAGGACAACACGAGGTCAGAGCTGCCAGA"
endpoint_value = -0.589

[[record]]
biosequence = "GATACAGCGTCAGCTAGAGGCCAGAGTATGGAAA"
endpoint_value = -1.5

[[record]]
biosequence = "TCATATAGGTAAATGCTAGGAGAAAGTCCGATCT"
endpoint_value = 0.0208

[[record]]
biosequence = "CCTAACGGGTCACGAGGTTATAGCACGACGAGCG"
endpoint_value = -0.146

[[record]]
biosequence = "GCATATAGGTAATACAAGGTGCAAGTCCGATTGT"
endpoint_value = -0.455

[[record]]
biosequence = "TCATATAGGTAAATGCTAGGCGAAAGTCCGATCT"
endpoint_value = -0.0313

[[record]]
biosequence = "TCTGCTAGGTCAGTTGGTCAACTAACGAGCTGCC"
endpoint_value = 0.371

